Source listed as patent US20100047371A1.

- System: Human Oral Mucosa Explant Tissues
- assay: Effect of final gel pH on anthocyanin uptake into human oral mucosa explant tissues
- Assay type: in vitro ADME
- condition_notes: explant sample 011; 10% w/w FBR gel
quantity: Anthocyanin uptake, Gel pH 3.5 (pmol per mg tissue)
The reply should contain only the number, in pmol per mg tissue.

>>> test_result("OC[C@H]1O[C@@H](Oc2cc3c(O)cc(O)cc3[o+]c2-c2ccc(O)c(O)c2)[C@H](O[C@@H]2OC[C@@H](O)[C@H](O)[C@H]2O)[C@@H](O)[C@@H]1O.[Cl-] [Cyanidin 3-sambubioside, cyanidin 3-sambubioside]")
2.1
>>> test_result("OC[C@H]1O[C@@H](Oc2cc3c(O)cc(O)cc3[o+]c2-c2ccc(O)c(O)c2)[C@H](O)[C@@H](O)[C@@H]1O [cyanidin 3-glucoside]")
18.9
>>> test_result("CC1OC(OCC2OC(Oc3cc4c(O)cc(O)cc4[o+]c3-c3ccc(O)c(O)c3)C(OC3OCC(O)C(O)C3O)C(O)C2O)C(O)C(O)C1O (stereo not shown) [cyanidin 3-xylosylrutinoside]")
6.0

Consider the record given below.
Just so you know, measured Anthocyanin uptake, Gel pH 3.5 for C[C@@H]1O[C@@H](OC[C@H]2O[C@@H](Oc3cc4c(O)cc(O)cc4[o+]c3-c3ccc(O)c(O)c3)[C@H](O)[C@@H](O)[C@@H]2O)[C@H](O)[C@H](O)[C@H]1O [cyanidin 3-rutinoside] came out at 28.7
